# polymerase ribozyme fitness (log ratio) per record follows
B1: TPR t1 (parent)
chain: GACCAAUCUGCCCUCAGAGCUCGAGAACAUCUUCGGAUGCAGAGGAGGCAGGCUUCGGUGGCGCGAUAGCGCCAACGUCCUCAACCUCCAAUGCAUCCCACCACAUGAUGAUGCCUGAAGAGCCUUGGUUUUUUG

Variants of: B1
Test: polymerase ribozyme fitness, log enrichment relative to wild type (log ratio); higher = more active; in vitro selection for triplet polymerase activity
When you answer, write just the number.

Documented polymerase ribozyme fitness (log ratio) of GACCAAUCUGCCCUCAGAGCUCGAGAACAUCUUCGGAUGCAGAGGAGGCAGGCUUCGGUGGCGCGAUAGCGCCAACGUCCUCAACCUCCAAUGCAUCCCACUACAUGAUGAUGCCUGAAGAGCCUUGCAUUUUUG : -4.82

Looking up GACCAAUCUGCUCGGAGAGCUCGAGAACAUCUUCGGAUGCAGAGGAGGCAGGCUUCGGUGACGCGAUAGCGCCAACGUCCUCAACCUUCAAUGCAUCCCACCACAUGAUGAUGCCUGAAGAGCCUUGGCUUUUUG , I see its polymerase ribozyme fitness (log ratio) listed as -1.38

polymerase ribozyme fitness (log ratio) recorded for this variant, GACCAAUCUGCCCUCAGAGCUCGAGAACAUCUACGUAUGCAGAGGAGGCAGGCUUCGGUGGCGCGAUAGCGCCAACGUCCUCAACCUCCAAUGCAUCCCACCACAUGAUGAUGCCUGAAGAGCCUUGGUUUUUUG , is -4.74

Lookup result for GACCAAUCUGCCCUCCGAGCUCGAGAACAUCUUCGGAUGCAGAGGAGGCAGGCUUCGGUGGCGCGAUAGCGCCAACGUCCUCAACCUCCAAUGCAUCCCACCACAAGAUGAUGCCUGAAGAGCCUUGGUUUUUUG ; measured polymerase ribozyme fitness (log ratio): -2.82

Given item GACCAAUCUGCCCUUAGAGCUCGAAAACAUCUUCGGAUGCAGAGGAGGCAGGCUUCGGUGGCGCGAUAGCGCCAACGUCCUCAACCUCCAAUGCAUCCCACCACAUGAUGAUGCCUGAAGAGCCUUGGUUUUUUG , the value recorded as its polymerase ribozyme fitness (log ratio) is -4.87

variant GACCAAUCUGCCCUCAGAGCUCGAGAACAUCUUCGGAUGCAGAGGAGGCAGGCUUCGGUGGCGCGAUAGCGCCAACGUCCUCAACCUCCAAUGCAUCCCAUCACAUAAUGAUGCCUGAAGAGCCUUGGUUUUUUG , polymerase ribozyme fitness (log ratio) observed: -4.66

Form: variant = GACAAAUCUACCCUCAGAGCUCGAGAACAUCUUCGGAUGCAGAGGAGGCAGGGUUCGGUUGCGCGAUAGUGCCUACGUCCUCAACCUCCAAUGCAUCCCACCACAUGAUGAUGCCUGAAGAGACUUGGUUCUUUG ; polymerase ribozyme fitness (log ratio) = -1.36

Notebook: GAGCAAUCUGCCCUCAGAGCUCGAGAACAUCUUCGGAUGCAGAGGAGGCAGGCUUCGGUGGCGCGAUAGCGCCAACGUCCUCAACCUCCAAUUCAUCUCACCACAUGAUGAUGCCUGAAGAGCCUUGCUUUUUUG , polymerase ribozyme fitness (log ratio) read as -2.57

The reported polymerase ribozyme fitness (log ratio) of the variant GAUCAAUCUGCCCUCAGAGCUCGAGAACAUCUUCGGAUGCAGAGGAGGCAGGCUUCGGUGGCGCGAUAGCGCCAACGUCCUCAACCUCCAAUGCAUCCCACCACAAGAUGAUGCCUGAAGAGCCUUGGUUUUUUG was -0.258

For GACCAAUCUGCCCUCAGAGCUCGAGAACAUCUUCGGAUGCAGAGGAGGCAGGCUUCGGUGGCGCGAUAGGGCCAACGUCCUCAACCCCCAAUGCAUCCCACCACAUGAUGAUGCCUGAAGAGCCUUGGUUUUUUG the variant record lists polymerase ribozyme fitness (log ratio) as -4.17

Lab note: measured polymerase ribozyme fitness (log ratio) of GACCAAUCUGCCCUCAGAGCUCGAGAACAUCUUCGGAUGCAGAGGAGGCAGGCUUCGGUGGCGCGAUAGAGCCAACGUCCUCGAUCUCCAAUGCAUCCCACCACAUGAUGAUUCCUUAAGAGCCUUGGUUUUUUG was -6.04

Item: GACCAAUCUGCCCUCAGAGCUCGAGAACAUCUUCGGAUGCAGAGGAGGCAGGCUUCGGUGGCGCGAUAGUGCCAACGUCCUCAACCCCCAAUGCAUCCCACCACAUGAUGAUGCCAGAAGCGCCUUGGUUUUUUG | polymerase ribozyme fitness (log ratio): -2.16

The recorded polymerase ribozyme fitness (log ratio) for entry GUCCAAUCUGCCCUCAGAGCUCGAGAACAUCUUCGGAUGCAGGGAAGGCAGGCUUCGGUGGCGCGAUAGCGGCAACGUCCUCAGCCUCCAAUGCAUCCCACCACAUGAUGUUGCCUGAAGAGCCUUGGUUUUUUG equals -6.25

polymerase ribozyme fitness (log ratio) in this record for GACCAAUCUGCCCUCAGAGCUCGAGAACAUCUUCGGAUGCAGAGGAGGCAGGCUUCGGUGGCGCGAUAACGCCAACGUCCUCAUCCUCCAGUGCAUCCCACCACAUGAUGAUGCCUGAAGAGCCUUGGUUUUUUG : -6.33

Measured polymerase ribozyme fitness (log ratio) of GACCAAUUUGCCCACAGAGCUCGAGAACAUCUUCGGAUGCCGAGGAGGCAGGCUUCGGUGGCGUGAUAGCGCCAACGUCCUCAACCUCCAAUUCAUCCCACCACAUGAUGAUGCUUGAAGAGCCGUGGUUUAGUG : -6.39

# polymerase ribozyme fitness (log ratio) of GACCAAUCUGCCCUCAGAGCUCGUGAACAUCUUCCGAUGCAGAGGAGGAAGGCUUCGGUGGCACGAUAGCGCCAACGUCCUCAACCUCCAAUGCAUCCCACCACAUGAUGGUGCCUGAAGAGCUUUGGUUUUUUA = -6.36
